Test target: hSSTR2 (Homo sapiens (Human))
Sequence (P30874 whole entry): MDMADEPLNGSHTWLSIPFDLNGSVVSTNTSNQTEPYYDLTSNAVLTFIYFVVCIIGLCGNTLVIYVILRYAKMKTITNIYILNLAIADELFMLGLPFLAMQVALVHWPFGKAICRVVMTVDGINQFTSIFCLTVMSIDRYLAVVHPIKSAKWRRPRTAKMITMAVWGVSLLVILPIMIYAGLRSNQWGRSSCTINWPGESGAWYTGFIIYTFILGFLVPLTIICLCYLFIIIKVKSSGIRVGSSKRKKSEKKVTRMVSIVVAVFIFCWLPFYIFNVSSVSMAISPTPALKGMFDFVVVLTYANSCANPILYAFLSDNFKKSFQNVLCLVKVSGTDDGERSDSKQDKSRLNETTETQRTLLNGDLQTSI
Assay details: Intracellular calcium mobilization assay (FLIPR Calcium 4), hSSTR2;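 note: agonist activity read as intracellular calcium rise in cells expressing human SSTR2, loaded with a calcium-sensitive dye for 60 min at 37 °C, measured by FLIPR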
Format: cell-based
Experimental setup: read-out: hSSTR2 % Emax ± SEM
Value type: Emax (%)
Answers are plain numbers, in %.

Solved entries:
Compound	Emax [%]
C[C@@H](O)[C@@H]1NC(=O)[C@H](CCCCN)NC(=O)[C@@H](Cc2c[nH]c3ccccc23)NC(=O)[C@H](Cc2ccncc2)NC(=O)[C@H](Cc2ccccc2)NC(=O)[C@H](CCCNC(=N)N)NC(=O)[C@H](NC[C@H](CCCCNC(=O)C[S+]([O-])C[C@@H]2C[C@@H]3c4cccc5[nH]cc(c45)C[C@H]3N(C)C2)NC(=O)C[S+]([O-])C[C@@H]2C[C@@H]3c4cccc5[nH]cc(c45)C[C@H]3N(C)C2)CCCCNC(=O)[C@H](Cc2ccc(O)cc2)NC1=O (stereo partly shown)	103
C[C@@H](O)[C@@H]1NC(=O)[C@H](CCCCN)NC(=O)[C@@H](Cc2c[nH]c3ccccc23)NC(=O)[C@H](Cc2ccccc2)NC(=O)[C@H](Cc2ccccc2)NC(=O)[C@H](CCCNC(=N)N)NC(=O)[C@H](NC[C@H](Cc2ccc(O)cc2)NC(=O)CSC[C@@H]2C[C@@H]3c4cccc5[nH]cc(c45)C[C@H]3N(C)C2)CCCCNC(=O)[C@H](Cc2ccccc2)NC1=O	87.5
C[C@@H](O)[C@@H]1NC(=O)[C@H](CCCCN)NC(=O)[C@@H](Cc2c[nH]c3ccccc23)NC(=O)[C@H](Cc2ccncc2)NC(=O)[C@H](Cc2ccccc2)NC(=O)[C@H](CCCNC(=N)N)NC(=O)[C@H](NC[C@H](CCCCNC(=O)C[S+]([O-])C[C@@H]2C[C@@H]3c4cccc5[nH]cc(c45)C[C@H]3N(C)C2)NC(=O)C[S+]([O-])C[C@@H]2C[C@@H]3c4cccc5[nH]cc(c45)C[C@H]3N(C)C2)CCCCNC(=O)[C@H](Cc2ccccc2)NC1=O (stereo partly shown)	105
CC(=O)N(CCCN[C@@H]1CCCCNC(=O)[C@H](Cc2ccc(F)cc2)NC(=O)[C@H]([C@@H](C)O)NC(=O)[C@H](CCCCN)NC(=O)[C@@H](Cc2c[nH]c3ccccc23)NC(=O)[C@H](Cc2ccccc2)NC(=O)[C@H](Cc2ccccc2)NC(=O)[C@H](CCCNC(=N)N)NC1=O)C[C@@H]1C[C@@H]2c3cccc4[nH]cc(c34)C[C@H]2N(C)C1 [Compound 29A]	100

Each of the following entries comes with a recorded value; kindly state Emax for each.
1. C[C@@H](O)[C@@H]1NC(=O)[C@H](CCCCN)NC(=O)[C@@H](Cc2c[nH]c3ccccc23)NC(=O)[C@H](Cc2ccccc2)NC(=O)[C@H](Cc2ccccc2)NC(=O)[C@H](CCCNC(=N)N)NC(=O)[C@@H](NC[C@H](Cc2ccc(O)cc2)NC(=O)CSC[C@@H]2C[C@@H]3c4cccc5[nH]cc(c45)C[C@H]3N(C)C2)CCCCNC(=O)[C@H](Cc2ccccc2)NC1=O
2. C[C@@H](O)[C@@H]1NC(=O)[C@H](CCCCN)NC(=O)[C@@H](Cc2c[nH]c3ccccc23)NC(=O)[C@H](Cc2ccncc2)NC(=O)[C@H](Cc2ccccc2)NC(=O)[C@H](CCCNC(=N)N)NC(=O)[C@H](NCC[S@+]([O-])C[C@@H]2C[C@@H]3c4cccc5[nH]cc(c45)C[C@H]3N(C)C2)CCCCNC(=O)[C@H](Cc2ccc(O)cc2)NC1=O
3. C[C@@H](O)[C@@H]1NC(=O)[C@H](CCCCN)NC(=O)[C@@H](Cc2c[nH]c3ccccc23)NC(=O)[C@H](Cc2ccncc2)NC(=O)[C@H](Cc2ccccc2)NC(=O)[C@H](CCCNC(=N)N)NC(=O)[C@H](NCC[S@@+]([O-])C[C@@H]2C[C@@H]3c4cccc5[nH]cc(c45)C[C@H]3N(C)C2)CCCCNC(=O)[C@H](Cc2ccc(O)cc2)NC1=O

Result block:
[85.1, 92.3, 90.9]

Source of measurements: patent US8952128B2
